src = ChEMBL document CHEMBL4673406

assay text: in vitro
study conditions: human, liver microsomes
Description: Metabolic stability in human liver microsomes assessed as parent compound remaining at 0.5 uM measured after 10 mins
metric: remaining at 10 min, 0.5 µM (%)
Report only the number, with the unit % understood.

Exercise: Quick check: remaining at 10 min, 0.5 µM of C[C@@H](CNc1ccc(Cl)cc1)[C@H]1CC[C@@H](c2ccnc3ccc(F)cc32)CC1 ?
Key: 80

Exercise: Quick check: remaining at 10 min, 0.5 µM of C[C@@H](CNC(=O)c1ccc(Cl)cc1)[C@H]1CC[C@@H](c2ccnc3ccc(F)cc32)CC1 ?
Key: 56

Exercise: Quick check: remaining at 10 min, 0.5 µM of C[C@@H](NS(=O)(=O)c1ccc(Cl)cc1)[C@H]1CC[C@@H](c2ccnc3ccc(F)cc32)CC1 ?
Key: 29

Exercise: Quick check: remaining at 10 min, 0.5 µM of C[C@@H](NC(=O)c1cccc(Cl)c1)[C@H]1CC[C@@H](c2ccnc3ccc(F)cc32)CC1 ?
Key: 39

Exercise: Quick check: remaining at 10 min, 0.5 µM of C[C@@H](NC(=O)Nc1ccc(Cl)cc1)[C@H]1CC[C@@H](c2ccnc3ccc(F)cc32)CC1 ?
Key: 52

Exercise: Quick check: remaining at 10 min, 0.5 µM of C[C@@H](NC(=O)C1CCCCC1)[C@H]1CC[C@@H](c2ccnc3ccc(F)cc32)CC1 ?
Key: 6

Exercise: Quick check: remaining at 10 min, 0.5 µM of C[C@@H](NC(=O)c1ccc(-c2ccccc2)cc1)[C@H]1CC[C@@H](c2ccnc3ccc(F)cc32)CC1 ?
Key: 59
